Reference source: patent US9387219B2

Molecular target: GLUT2 (Homo sapiens, UniProt P11168)
Construct: endogenous in cells; host or cells: differentiated Caco-2 cell monolayers (ATCC)
Sequence (P11168 whole entry): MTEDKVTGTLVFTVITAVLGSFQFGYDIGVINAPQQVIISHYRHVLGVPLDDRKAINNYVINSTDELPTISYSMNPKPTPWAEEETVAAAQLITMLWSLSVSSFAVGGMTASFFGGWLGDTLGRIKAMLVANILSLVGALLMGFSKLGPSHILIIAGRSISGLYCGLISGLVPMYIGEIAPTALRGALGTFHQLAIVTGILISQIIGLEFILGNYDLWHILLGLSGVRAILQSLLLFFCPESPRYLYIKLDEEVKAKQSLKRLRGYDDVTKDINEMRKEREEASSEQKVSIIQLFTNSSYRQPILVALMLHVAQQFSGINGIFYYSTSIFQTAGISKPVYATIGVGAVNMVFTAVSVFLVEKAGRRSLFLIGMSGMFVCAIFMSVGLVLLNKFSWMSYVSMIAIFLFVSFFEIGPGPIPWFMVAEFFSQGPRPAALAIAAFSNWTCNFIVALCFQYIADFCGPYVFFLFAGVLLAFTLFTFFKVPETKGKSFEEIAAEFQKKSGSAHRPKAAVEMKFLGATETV
Test: Glucose transport inhibitor cell screening assay, 25 mM D-glucose for 30 minutes (GLUT2 inhibition)
Type: cell-based
Conditions: differentiated Caco-2 monolayer, 30 minutes, active at 150 uM
label 1 means recorded inhibition at 150 µM is 70% or above; label 0 means it is below 70%.

// known answers, use as guide
- O=c1c(O)c(-c2cc(O)c(O)c(O)c2)oc2cc(O)cc(O)c12 [Myricetin]: label 0
- COc1ccc([C@@H]2CC(=O)c3c(O)cc(O)cc3O2)cc1O [Hesperetin]: label 1
- O=c1c(O)c(-c2ccc(O)cc2)oc2cc(O)cc(O)c12 [Kaempferol]: label 0
- O=c1cc(-c2ccc(O)cc2)oc2cc(O)cc(O)c12 [Apigenin]: label 0
- Oc1cc(O)c2cc(O)c(-c3ccc(O)c(O)c3)[o+]c2c1 [Cyanidin]: label 0

Now, please, on to the next compound.
(Q) Could you tell me if the measured inhibition at 150 µM of O=C(CCc1ccc(O)cc1)c1c(O)cc(O)cc1O [Phloretin, reference compound] reaches 70% or more?
(A) label 1
